Sourced from patent US7264956B2

tested-system: enzyme activity in living cells of A×20 (Corynebacterium striatum, UniProt Q8GGD4)
Construct: stationary phase living cells of A×20; endogenous in cells; host or cells: Corynebacterium striatum Ax20, stationary-phase living cells
Sequence (Q8GGD4 2-400): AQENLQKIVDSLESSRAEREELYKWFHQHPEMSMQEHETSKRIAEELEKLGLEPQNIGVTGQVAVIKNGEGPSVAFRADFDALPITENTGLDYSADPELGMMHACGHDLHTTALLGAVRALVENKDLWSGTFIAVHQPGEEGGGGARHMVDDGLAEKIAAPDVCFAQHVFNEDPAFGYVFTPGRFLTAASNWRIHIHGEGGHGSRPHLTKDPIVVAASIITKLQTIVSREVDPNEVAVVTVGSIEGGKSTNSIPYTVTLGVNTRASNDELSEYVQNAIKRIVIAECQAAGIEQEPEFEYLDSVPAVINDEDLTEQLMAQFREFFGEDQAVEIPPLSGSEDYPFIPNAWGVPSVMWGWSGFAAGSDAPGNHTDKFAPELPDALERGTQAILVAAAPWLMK
protocol-text: Low throughput screening for inhibitors, stationary phase living cells of A×20
Assay type: cell-based
condition: 5 mM; substrate Nα-lauroyl-L-glutamine, 2 h
quantity-name: % inhibition of enzyme activity in living cells (%)
Field: numeric (%). Do not append units.

input: Look up % inhibition of enzyme activity in living cells: `O=P(O)(O)CN(CP(=O)(O)O)CP(=O)(O)O`
output: 55.7

input: Dear colleague, I am looking for the recorded % inhibition of enzyme activity in living cells of the following molecule: `c1cnc2c(c1)ccc1cccnc12`
output: 90.3

input: Given `O=C(O)CNCCNCC(=O)O` , state its recorded % inhibition of enzyme activity in living cells.
output: 58.3

input: Please report the recorded % inhibition of enzyme activity in living cells for CCC(NCCNC(CC)C(=O)O)C(=O)O (stereo not shown) .
output: 53.7

---

tested-system: enzyme extracted from Corynebacterium striatum A×20 (AMRE, Nα-acyl-glutamine-aminoacylase) (Corynebacterium striatum, UniProt Q8GGD4)
Construct: an enzyme may be isolated from cellular extracts obtained from wild-type bacterial strains; endogenous in cells; host or cells: Corynebacterium striatum Ax20 (DSM 14267), mechanically disrupted; crude extract or chromatographically purified enzyme
Sequence (Q8GGD4 2-400): as above
protocol-text: Substrate specificity of the enzyme (capillary GC of released acid or alcohol)
Assay type: biochemical
condition: 500 ppm in Buffer A, 24 h incubation
quantity-name: Cleavage by enzyme

molecule: CC(C)C[C@H](NC(=O)OCc1ccccc1)C(=O)O
reading: −
--
molecule: CCCCCCCCCCCC(=O)N[C@@H](CC(=O)O)C(=O)O [compound 6, N-Lauroyl-L-aspartate]
reading: −
--
molecule: COC(=O)[C@H](CCC(N)=O)NC(=O)OCc1ccccc1
reading: −
--
molecule: O=C(O)C[C@H](NC(=O)OCc1ccccc1)C(=O)O [compound 13, Carbobenzyloxy-L-aspartate]
reading: −

---

tested-system: enzyme extracted from Corynebacterium striatum A×20 (AMRE, Nα-acyl-glutamine-aminoacylase) (Corynebacterium striatum, UniProt Q8GGD4)
Construct: an enzyme may be isolated from cellular extracts obtained from wild-type bacterial strains; endogenous in cells; host or cells: Corynebacterium striatum Ax20 (DSM 14267), mechanically disrupted; crude extract or chromatographically purified enzyme
protocol-text: Substrate specificity of the enzyme (capillary GC of released acid or alcohol)
Type: biochemical
Description: To understand in detail the structural requirements of substrates, the enzyme extracted from Corynebacterium striatum A×20 was incubated with a wide variety of said compounds related to the originally isolated Nα-3-methyl-3-hydroxy-hexanoyl-L-glutamine present in sweat. Each compound was used at a concentration of 500 ppm in Buffer A, and analysis of released acid or alcohol was done by capillary GC after 24 h of incubation. First, different modifications at the N-terminus were tested.
quantity-name: cleavage of substrate by enzyme (in words)

molecule: CCCCOC(=O)N[C@@H](CCC(N)=O)C(=O)O
reading: able to be cleaved
--
molecule: CC(CCOC(=O)N[C@@H](CCC(N)=O)C(=O)O)CCc1ccccc1 (stereo partly shown)
reading: able to be cleaved
--
molecule: C=CCCCCCCCCC(=O)N[C@@H](CCC(N)=O)C(=O)O
reading: able to be cleaved

---

tested-system: purified enzyme obtained from E.coli Top 10/pBADgIII AMRE (Corynebacterium striatum, UniProt Q8GGD4)
protocol-text: High throughput screening for inhibitors (fluorescamine assay of released L-glutamine)
condition: substrate Nα-lauroyl-L-glutamine 0.05 mM; Ki calculated from IC50
quantity-name: Ki
Answer format: value, then unit.

input: Consider the compound shown here: CCCC[C@H](S)C(=O)N[C@@H](CCC(N)=O)C(=O)O [Compound 5c] What is its recorded Ki?
output: 410 nM

input: Report Ki for NC(=O)CCC(CP(=O)(O)Cc1ccccc1)C(=O)O (stereo not drawn) [Compound 8a] please.
output: 50 nM

input: Query (compound): CC(C)CP(=O)(O)CC(CCC(N)=O)C(=O)O (stereo not drawn) [Compound 8b] ; field requested: Ki
output: 58 nM

input: Looking for the measured Ki of CCCCP(=O)(O)CC(CCC(N)=O)C(=O)O (stereo not drawn) [Compound 8c] , can you help?
output: 110 nM

input: For the compound shown here, NC(=O)CC[C@H](NC(=O)[C@@H](S)Cc1ccccc1)C(=O)O [Compound 5a] , give the reported Ki.
output: 54 nM

input: So what's the measured Ki for this one? CC(C)C[C@H](S)C(=O)N[C@@H](CCC(N)=O)C(=O)O [Compound 5b]
output: 130 nM
